# TARGET ENTITY: BaF3-ETV6-NTRK2 (Homo sapiens)
# Construct: fused on or other part: P41212 (Transcription factor ETV6)
# Sequence (Q16620 538-822 limits assumed): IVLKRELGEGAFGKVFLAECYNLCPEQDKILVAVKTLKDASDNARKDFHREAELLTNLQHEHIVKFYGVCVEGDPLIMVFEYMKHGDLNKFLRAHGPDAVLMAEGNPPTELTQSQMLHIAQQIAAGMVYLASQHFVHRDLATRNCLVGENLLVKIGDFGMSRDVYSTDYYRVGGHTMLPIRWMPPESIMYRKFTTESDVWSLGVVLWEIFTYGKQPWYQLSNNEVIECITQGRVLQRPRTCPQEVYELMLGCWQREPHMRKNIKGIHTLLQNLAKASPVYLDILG
# PROTOCOL: Cell proliferation inhibition (CCK-8), BaF3-ETV6-NTRK2 stable strain
# COND: BaF3-ETV6-NTRK2, 72 hours
# Experimental: […] Cell proliferation inhibition activity study: the cells in the logarithmic growth phase were seeded into 96-well plates at 8000-12000 cells/well, and inhibitors at different concentrations (0-10 μM) were added the next day, and incubation was continued for 72 hours; then 10 μL of CCK-8 reagent was added to each well, and the incubation was continued for 1-3 hours; and then use a super microplate reader to measure their absorbance values at 450 nm and 650 nm. […]
MEASURED PARAMETER: log10(IC50) (log10 of the value in nM)

{"COMPOUND": "C(#Cc1n[nH]c2ccc(Cc3ccccc3)cc12)c1ccccn1", "log10(IC50)": 3.67}
{"COMPOUND": "C[C@@H](Nc1ccc2[nH]nc(/C=C/c3ccccn3)c2c1)c1cccc(F)c1", "log10(IC50)": 1.51}
{"COMPOUND": "O=S(=O)(Nc1ccc2[nH]nc(/C=C/c3cnn(CCO)c3)c2c1)c1cc(F)cc(F)c1", "log10(IC50)": 2.29}
{"COMPOUND": "CC(=O)n1cc(/C=C/c2n[nH]c3ccc(NS(=O)(=O)c4cc(F)cc(F)c4)cc23)cn1", "log10(IC50)": 2.27}
{"COMPOUND": "C[C@@H](Nc1ccc2[nH]nc(/C=C/c3ccncc3)c2c1)c1cc(F)cc(F)c1", "log10(IC50)": 1.07}
{"COMPOUND": "COc1cccc(Cc2ccc3[nH]nc(/C=C/c4ccccn4)c3c2)c1 [DYX-135X]", "log10(IC50)": 3.47}
{"COMPOUND": "C[C@@H](Nc1cc2c(/C=C/c3ccccn3)n[nH]c2cn1)c1cc(F)cc(F)c1", "log10(IC50)": 2.20}
{"COMPOUND": "CNC(=O)Cn1cc(/C=C/c2n[nH]c3ccc(NS(=O)(=O)c4cc(F)cc(F)c4)cc23)cn1", "log10(IC50)": 2.63}
{"COMPOUND": "CN(Cc1cc(F)cc(F)c1)c1ccc2[nH]nc(/C=C/c3ccccn3)c2c1", "log10(IC50)": 2.80}
